- system_under_test: Ghrelin receptor (Homo sapiens, UniProt Q92847)
- protocol_summary: Receptor Selection and Amplification Technology (R-SAT) assay
- Type: cell-based
- Set-up: expressed in transfected cells; host or cells: NIH3T3
- protocol_conditions: read-out: RSAT Eff(%)
measured_metric: Emax (%)
State the answer as a number, implicitly in %.

[[record]]
compound = "COc1ccccc1C1CCN(CCCn2cc(C(=O)c3ccccc3)c3cccc(OC)c32)CC1"
measured_metric = "Emax"
observed_result = 88

[[record]]
compound = "COc1cccc2c(C(=O)Cc3ccccc3)cn(CCCN3CCN(Oc4cccc(Cl)c4)CC3)c12"
measured_metric = "Emax"
observed_result = 88

[[record]]
compound = "CCCCC[C@H]1C[C@H]2CC[C@@H](C1)N2CCCn1cc(C(=O)C2CC2)c2cccc(OC)c21"
measured_metric = "Emax"
observed_result = 101

[[record]]
compound = "COc1cccc2c(C(=O)Cc3ccccc3)cn(CCCN3C4CCC3CC(CCc3ccccc3)C4)c12 (stereo not drawn)"
measured_metric = "Emax"
observed_result = 141

[[record]]
compound = "COc1cccc2c(C(=O)Cc3ccccc3)cn(CCCN3CCCC(Oc4ccc(Cl)cc4)C3)c12 (stereo not drawn)"
measured_metric = "Emax"
observed_result = 86

[[record]]
compound = "COc1cccc2c(C(=O)NCc3cccc(C)c3)cn(CCCN3CCCN(Cc4ccc(F)cc4)CC3)c12"
measured_metric = "Emax"
observed_result = 129

[[record]]
compound = "COc1cccc2c(C(=O)NCC(C)C)cn(CCCN3CCC(Oc4ccccc4Cl)CC3)c12"
measured_metric = "Emax"
observed_result = 100

[[record]]
compound = "CC(C)CC(=O)c1cn(CCCN2CCC(c3nc4c(s3)C=CCC4)CC2)c2ccccc12"
measured_metric = "Emax"
observed_result = 108

[[record]]
compound = "COc1cccc2c(C(=O)NCC(C)C)cn(CCCN3CCCC(Oc4ccc(Cl)cc4)C3)c12 (stereo not drawn)"
measured_metric = "Emax"
observed_result = 9

[[record]]
compound = "COc1cccc2c(C(=O)C3CC3)cn(CCCN3CCCN(CCc4ccccc4)CC3)c12"
measured_metric = "Emax"
observed_result = 100


// query Report Emax for `CCCCC1CCN(CCCn2cc(C(=O)c3ccccc3)c3cccc(OC)c32)CC1` please.
// result 98

// query Continue with COc1cccc2c(C(=O)NCc3cccc(C)c3)cn(CCCN3C4CCC3CC(Oc3ccc(Cl)cc3)C4)c12 (stereo not drawn)
// result 92

// query Please do the same for CCc1cccc2c(C(C)=O)cn(CCCN3CCCC(Oc4ccc(Cl)cc4)C3)c12 (stereo not drawn) as well.
// result 13

// query Same question for `COc1cccc2c(C(=O)Cc3ccccc3)cn(CCCN3CCCN(Cc4ccc(F)cc4)CC3)c12` please.
// result 87

// query // repeat for `COc1cccc2c(C(=O)NCc3cccc(C)c3)cn(CCCN3CCN(c4ncc(C(F)(F)F)cc4Cl)CC3)c12` and report
// result 80

// query Follow-up entry: `COc1cccc2c(C(=O)NCC(C)C)cn(CCCN3CCC(Oc4cccc(Cl)c4)CC3)c12`
// result 71

// query Same question, `COc1cccc2c(C(=O)NCc3cccc(Cl)c3)cn(CCCN3CCC4(CC3)CC(=O)c3ccccc3O4)c12` this time
// result 7.8

// query Request: `COc1cccc2c(C(=O)C3CC3)cn(CCCN3CCN(CCOc4ccccc4)CC3)c12`
// result 94

// query What about this compound? `COc1cccc2c(C(=O)NCc3cccc(C)c3)cn(CCCN3CCC4(CC3)CC(=O)c3ccccc3O4)c12`
// result 63

// query Here is the next compound: `CC(=O)c1c(C)n(CCCN2CCN(CCOc3ccc(Cl)cc3)CC2)c2c(Br)cccc12`
// result -13

====

Emax listing for selected compounds.
- system_under_test: Ghrelin receptor (Homo sapiens)
- protocol_summary: Receptor Selection and Amplification Technology (R-SAT) assay
- Type: cell-based
- Parameters: expressed in transfected cells; host or cells: NIH3T3
- protocol_conditions: percent inhibition at saturating ligand, normalized to reference ligand Substance P analog = 100%; read-out: RSAT Eff(%)
Answer in %, number only, no unit symbol.

// query Query: Emax; subject: `CC(=O)c1cn(CCCN2CCC(c3nc(-c4cccnc4)no3)CC2)c2c(Br)cccc12`
// result 119

====

- system_under_test: Ghrelin receptor (Homo sapiens, UniProt Q92847)
- protocol_summary: Receptor Selection and Amplification Technology (R-SAT) assay
- Type: cell-based
- Design: expressed in transfected cells; host or cells: NIH3T3
- protocol_conditions: read-out: RSAT Eff(%)
Rule: Criterion met for Emax not less than 90%, Criterion not met for anything less.

// query Quick check: does `O=C(c1cn(CCCN2CCC(S(=O)(=O)c3ccc(Cl)cc3)CC2)c2ccccc12)C(F)(F)F` have Emax greater than or equal to 90%?
// result Criterion not met

// query Check `CCCOC1CCN(CCCn2cc(C(C)=O)c3ccccc32)CC1` too.
// result Criterion met

// query // next record `COc1cccc2c(C(=O)NCC(C)C)cn(CCCN3CCC(CCOc4ccc(Cl)cc4)CC3)c12`
// result Criterion not met

// query Try COc1cccc2c(C(=O)NCC(C)C)cn(CCCN3C4CCC3CC(CCc3ccccc3)C4)c12 (stereo not shown) next.
// result Criterion not met

// query Entry to check: `COc1cccc2c(C(=O)c3ccccc3)cn(CCCN3CCC4(CC3)CC(=O)c3ccccc3O4)c12`
// result Criterion not met

// query Next compound: `CC(=O)c1c(C)n(CCCN2CCC3(CC2)CC(=O)c2ccccc2O3)c2c(Br)cccc12`
// result Criterion not met

// query Same thing, different compound: `COc1cccc2c(C(C)=O)cn(CCCN3CCC(N(C4CC4)S(=O)(=O)c4ccccc4)CC3)c12`
// result Criterion met

====

- system_under_test: Ghrelin receptor (Homo sapiens)
- protocol_summary: Receptor Selection and Amplification Technology (R-SAT) assay
- Assay type: cell-based
- Parameters: expressed in transfected cells; host or cells: NIH3T3
- protocol_conditions: negative logarithm of ligand concentration causing 50% inhibition of constitutive receptor response; transfected NIH3T3 cells; '—' not defined (nd used separately); read-out: RSAT pIC50 (converted)
Assign labels as follows, please: yes (1) for IC50 below 300 nM; no (0) for IC50 equal to or exceeding 300 nM.

[[record]]
compound = "CC(=O)c1cn(CCCN2CCC(Oc3ccc(F)cc3)CC2)c2ccccc12 [drawing 551]"
label_class = "no (0)"

[[record]]
compound = "COc1cccc2c(C(C)=O)cn(CCCN3CCN(c4ncc(C(F)(F)F)cc4Cl)CC3)c12"
label_class = "yes (1)"

[[record]]
compound = "CC(=O)c1cn(CCCN2CCC(Oc3ccc(F)cc3)CC2)c2ccccc12.O=C(O)C(=O)O [drawing 520]"
label_class = "yes (1)"

[[record]]
compound = "COc1cccc2c(C(C)=O)cn(CCCN3CCN(c4ccc(C(F)(F)F)cc4)CC3)c12"
label_class = "yes (1)"

[[record]]
compound = "CC(=O)c1c(C)n(CCCN2CCN(CCOc3ccccc3)CC2)c2c(Br)cccc12"
label_class = "no (0)"


// query Just wondering, is IC50 of `COc1ccccc1C1CCN(CCCn2cc(C(C)=O)c3cccc(Br)c32)CC1` below 300 nM?
// result yes (1)

// query For `COc1ccc2[nH]c3c(c2c1)CCN(CCCn1cc(C(=O)C(F)(F)F)c2ccccc21)C3` then?
// result no (0)

====

- system_under_test: Ghrelin receptor (Homo sapiens)
- protocol_summary: Receptor Selection and Amplification Technology (R-SAT) assay
- Type: cell-based
- Set-up: expressed in transfected cells; host or cells: NIH3T3
- protocol_conditions: negative logarithm of ligand concentration causing 50% inhibition of constitutive receptor response; transfected NIH3T3 cells; '—' not defined (nd used separately); read-out: RSAT pIC50 (converted)
measured_metric: IC50 (nM)
Field format: number, assumed nM, no unit text.

Completed entries (count: 3):
[[record]]
molecule = "CC(=O)c1cn(CCCN2CCCC(Oc3ccc(Cl)cc3)C2)c2c(Br)cccc12 (centres unmarked)"
unit_name = "nM"
observed_result = 1260

[[record]]
molecule = "O=C(c1cn(CCCN2CCC(Oc3ccc(F)cc3)CC2)c2ccccc12)C(F)(F)F"
unit_name = "nM"
observed_result = 794

[[record]]
molecule = "CCC(=O)c1cn(CCCN2CCN(C(C)c3ccccc3)CC2)c2ccccc12 (centres unmarked)"
unit_name = "nM"
observed_result = 2510


// query Give its IC50 value. Item: `COc1cccc2c(C(=O)NCc3cccc(Cl)c3)cn(CCCN3CCC(Oc4cccc(Cl)c4)CC3)c12`
// result 7.94

// query And for CCC(=O)c1cn(CCCN2C3CCC2CC(OCC2CC2)C3)c2ccccc12 (centres unmarked) ?
// result 2510

====

Below, each of the molecules is paired with its reported Ki value.
- system_under_test: GHSR1a receptor (Homo sapiens, UniProt Q92847)
- Construct: expressed in transfected cells; host or cells: HEK293 (membranes)
- Sequence (Q92847 whole entry): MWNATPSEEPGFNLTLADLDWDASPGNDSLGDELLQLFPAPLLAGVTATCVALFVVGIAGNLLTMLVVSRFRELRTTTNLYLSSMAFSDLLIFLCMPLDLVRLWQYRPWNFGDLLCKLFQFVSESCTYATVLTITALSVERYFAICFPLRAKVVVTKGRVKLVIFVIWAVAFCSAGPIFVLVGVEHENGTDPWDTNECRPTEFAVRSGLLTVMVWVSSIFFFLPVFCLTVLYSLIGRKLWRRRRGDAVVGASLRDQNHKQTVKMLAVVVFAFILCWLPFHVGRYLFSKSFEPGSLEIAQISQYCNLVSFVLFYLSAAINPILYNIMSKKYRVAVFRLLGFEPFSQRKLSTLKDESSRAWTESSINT
- protocol_summary: 125I-Ghrelin binding assay
- protocol_conditions: displacement of 125I-ghrelin (0.053 nM), membranes of HEK293 cells transfected with GHSR1a; Cheng-Prussoff; '—' not defined; read-out: Binding pKi (converted)
Express the result in nM but write the number alone.

[[record]]
molecule = "CC(=O)c1cn(CCCN2CCC(Oc3ccc(F)cc3)CC2)c2c(C)cccc12"
measured_metric = "Ki"
unit_name = "nM"
observed_result = 200


// query Find the recorded Ki belonging to `COc1cccc2c(C(C)=O)cn(CCCN3CCN(c4ccccc4Cl)CC3)c12` and report it.
// result 2510

// query Check `CC(=O)c1cn(CCCN2CCC(Oc3ccccc3Cl)CC2)c2c(Br)cccc12` too.
// result 126

// query Similarly, COc1cccc2c(C(=O)NCc3cccc(Cl)c3)cn(CCCN3C4CCC3CC(Oc3ccc(Cl)cc3)C4)c12 (centres unmarked) ?
// result 251

// query Now the molecule `CC(=O)c1cn(CCCN2CCCN(Cc3ccccc3Cl)CC2)c2ncccc12`
// result 25.1

// query What do you get for `COc1cccc2c(C(C)=O)cn(CCCN3CCN(Oc4ccccc4Cl)CC3)c12` ?
// result 316
